// data source = paper PMC3218832

biological target: RELA (p65) subunit of heterodimer;p50 subunit (Homo sapiens;Homo sapiens, UniProt Q04206;P19838 1-307;7-356); experiment: protein binding microarray; high values mean tight binding; conditions: dsDNA, one strand shown
Sequence (Q04206 1-307, chain 1 of 2): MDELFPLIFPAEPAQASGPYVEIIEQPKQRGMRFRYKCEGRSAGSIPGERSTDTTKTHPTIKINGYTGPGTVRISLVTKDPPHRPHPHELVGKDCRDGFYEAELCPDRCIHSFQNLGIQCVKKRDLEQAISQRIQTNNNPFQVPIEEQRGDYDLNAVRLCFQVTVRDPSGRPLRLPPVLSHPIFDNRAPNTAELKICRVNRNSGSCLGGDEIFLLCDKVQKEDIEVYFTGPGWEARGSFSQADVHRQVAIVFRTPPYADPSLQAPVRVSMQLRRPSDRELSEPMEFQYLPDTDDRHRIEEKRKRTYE
Sequence (P19838 7-356, chain 2 of 2): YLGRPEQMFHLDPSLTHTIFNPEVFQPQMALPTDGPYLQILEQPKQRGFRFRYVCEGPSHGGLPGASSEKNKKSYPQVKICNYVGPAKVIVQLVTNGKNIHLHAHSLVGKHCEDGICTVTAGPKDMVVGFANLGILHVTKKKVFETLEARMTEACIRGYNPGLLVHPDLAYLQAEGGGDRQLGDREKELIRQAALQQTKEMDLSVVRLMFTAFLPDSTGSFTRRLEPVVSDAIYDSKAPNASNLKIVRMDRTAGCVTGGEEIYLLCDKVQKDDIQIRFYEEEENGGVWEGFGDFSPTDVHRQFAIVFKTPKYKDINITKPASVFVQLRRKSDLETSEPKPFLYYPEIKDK
Lab note: anything with binding signal at or over -0.2 z-score counts as YES; the rest go in NO.

1) AAATACGCCCT NO
2) GAATTGTTCCT NO
3) CGGAAATTCCC YES
4) GAGGGCCTCCT NO
5) AAGATGGCCCT NO
6) GAGTAATTCCT NO
7) GAGTTTCTCCT NO
8) GAGAGTATCCC NO
9) AGGAAACTCCT YES
10) AAAAATTCCCC YES
11) GGAGGACCCCT YES
12) AGGAGCGCCCC YES
13) AAGGGGGCCCC YES
14) CGAGTTTCCCT YES
15) CAAGTGGCCCT NO
16) CGAGATACCCC YES
17) CAAGAACCCCC YES
18) GAGGGAGCCCT NO
19) GAGAAACCCCC YES
20) CGAGATTTCCC YES
21) AAGGAGCTCCC NO
22) CAAAATGCCCT YES
23) AAAATTTTCCT YES
24) CAGATAGCCCT NO
25) AAGGTGTCCCT YES
26) GGAGACTTCCC YES
27) AGAAGATTCCT NO
28) AGAATTTCCCC YES
29) CGATGCTCCCC YES
30) GAATGAGCCCT NO
31) AAAGACTCCCT YES
32) GAGAGTTCCCC YES
33) GGAGAAGTCCT NO
34) CAATTCCTCCT NO
35) AGAGGAGCCCC YES
36) CAAGGCCCCCT YES
37) CGATATTTCCT NO
38) GGGTTCGTCCC YES
39) GAGAACTCCCC YES
40) CAAGATTCCCT YES
41) AAAAACATCCT NO
42) GAAATCGCCCC YES
43) CAGTTCTTCCC YES
44) GAAGTAATCCT NO
45) CGAAGTTCCCT YES
46) CGATACCTCCC NO
47) AGGGGGGCCCT YES
48) AAATAATTCCT NO
49) AGAAGGGTCCC YES
50) GGAAACTCCCC YES
51) AAAGGAGTCCC YES
52) AAAGTCCCCCT YES
53) GAGGTAGTCCC YES
54) GGAATTACCCC YES
55) CAGGTCGCCCC NO
56) GAGATTTTCCT YES
57) AGGAATATCCC YES
58) CGGAGGCCCCC YES
59) GGAGACGCCCT NO
60) GAGGTTATCCT NO
61) GAGGGATTCCT YES
62) AAAGAGACCCT NO
63) GAAATGACCCT NO
64) GAAGTCTTCCC NO
65) GGGATGGCCCC YES
66) AAGTGTGTCCT NO
67) CAGGGCCTCCC NO
68) CGGTAAACCCT YES
69) AGAATTGCCCT YES
70) GAGTGACTCCC NO
71) GAGAATGTCCT NO
72) AGATGTTCCCT YES
73) CAAATGGTCCT NO
74) GGAGTTCCCCT YES
75) CGAGGCACCCT NO
76) CAGATGACCCC NO
77) AGAATGTTCCT NO
78) CAAGAAACCCT NO
79) AGAGGCGTCCC YES
80) GAGGGCACCCT NO
81) GAGAAGCCCCT YES
82) CGGAAAACCCC YES
83) AGAGAGATCCC NO
84) CAATGTGTCCT NO
